biological target: purified HLA DRB5*0101 (Homo sapiens, UniProt P01903+Q30154); construct: purified from EBV transformed homozygous cell lines or single MHC allele transfected 721.221, C1R, or fibroblast lines; made in house; test: HLA-DR radioligand binding inhibition assay, DRB5*0101; settings: IC50 nM purified HLA DRB5 *0101, purified HLA DRB5*0101
This section presents compounds with their documented IC50 values.
Only the number, expressed in nM, is required.

# compound, measurement type, measured result
rows = [
    ("CC[C@H](C)[C@H](NC(=O)[C@H](CCC(N)=O)NC(=O)[C@H](CCSC)NC(=O)[C@H](CS)NC(=O)[C@H](Cc1c[nH]c2ccccc12)NC(=O)[C@H](CC(N)=O)NC(=O)[C@H](CC(C)C)NC(=O)[C@@H](N)CC(C)C)C(=O)N[C@@H](C)C(=O)N[C@@H](CCCCN)C(=O)NCC(=O)N[C@@H](CCSC)C(=O)N[C@@H](CO)C(=O)N[C@@H](Cc1ccc(O)cc1)C(=O)N[C@@H](CC(C)C)C(=O)O [Peptide 9019.0082]", "IC50", 92),
    ("CC(C)C[C@H](NC(=O)[C@H](C)NC(=O)[C@H](CC(C)C)NC(=O)[C@@H](N)CC(C)C)C(=O)N[C@@H](CC(C)C)C(=O)N1CCC[C@H]1C(=O)N1CCC[C@H]1C(=O)NCC(=O)N[C@@H](C)C(=O)N[C@@H](C)C(=O)N[C@@H](CO)C(=O)N[C@H](C(=O)N[C@@H](CCC(N)=O)C(=O)N[C@H](C(=O)N[C@@H](CS)C(=O)O)C(C)C)[C@@H](C)O [Peptide 1622.02]", "IC50", 17),
    ("CC[C@H](C)[C@H](NC(=O)[C@@H](N)CO)C(=O)N[C@H](C(=O)N[C@H](C(=O)N[C@@H](CO)C(=O)N[C@@H](C)C(=O)N[C@@H](CO)C(=O)NCC(=O)N[C@H](C(=O)N[C@@H](CO)C(=O)N1CCC[C@H]1C(=O)NCC(=O)N[C@@H](CC(C)C)C(=O)N[C@@H](CO)C(=O)N[C@@H](C)C(=O)O)[C@@H](C)O)C(C)C)[C@@H](C)O [Peptide 9019.0143]", "IC50", 15100),
    ("CSCC[C@H](NC(=O)[C@H](CCC(N)=O)NC(=O)[C@H](CC(C)C)NC(=O)[C@H](CC(C)C)NC(=O)[C@H](CCC(=O)O)NC(=O)[C@H](CCC(=O)O)NC(=O)[C@@H]1CCCN1)C(=O)N[C@@H](CCC(=O)O)C(=O)N[C@@H](CC(C)C)C(=O)N[C@@H](CC(C)C)C(=O)N[C@@H](CC(C)C)C(=O)N[C@H](C(=O)N[C@@H](CC(N)=O)C(=O)N[C@@H](CCCCN)C(=O)N[C@@H](CC(C)C)C(=O)O)C(C)C [Peptide 9019.0161]", "IC50", 2800),
    ("CC[C@H](C)[C@H](NC(=O)[C@H](CC(C)C)NC(=O)[C@@H](NC(=O)CNC(=O)CNC(=O)[C@H](CCCCN)NC(=O)[C@H](CC(C)C)NC(=O)[C@@H](NC(=O)[C@H](CCC(=O)O)NC(=O)[C@@H](N)[C@@H](C)O)[C@@H](C)CC)C(C)C)C(=O)N[C@@H](CCC(N)=O)C(=O)N[C@@H](CCCNC(=N)N)C(=O)N[C@@H](CC(N)=O)C(=O)N1CCC[C@H]1C(=O)N[C@@H](CCC(N)=O)C(=O)O [Peptide 9019.0039]", "IC50", 1880),
    ("CC[C@H](C)[C@H](NC(=O)[C@H](CCCCN)NC(=O)[C@H](CCC(N)=O)NC(=O)[C@@H](N)CCC(N)=O)C(=O)N[C@@H](CCCNC(=N)N)C(=O)N[C@@H](CCCCN)C(=O)N[C@@H](Cc1ccc(O)cc1)C(=O)N[C@H](C(=O)N[C@@H](CCSC)C(=O)N[C@@H](CCCNC(=N)N)C(=O)N[C@@H](CCCNC(=N)N)C(=O)N[C@@H](CC(C)C)C(=O)N[C@@H](CC(C)C)C(=O)N[C@@H](CCC(N)=O)C(=O)N[C@@H](CCC(=O)O)C(=O)O)[C@@H](C)O [Peptide 9019.0070]", "IC50", 340),
]

Proceed to the following item.
Give recorded IC50 with purified HLA DRB5*0101 (Homo sapiens, UniProt P01903+Q30154) for the following compound: CC[C@H](C)[C@H](NC(=O)[C@H](CS)NC(=O)[C@H](Cc1c[nH]c2ccccc12)NC(=O)[C@@H](N)CCCNC(=N)N)C(=O)N1CCC[C@H]1C(=O)N[C@@H](Cc1c[nH]c2ccccc12)C(=O)N[C@@H](CCC(N)=O)C(=O)N[C@@H](CCCNC(=N)N)C(=O)N[C@@H](CC(C)C)C(=O)N[C@@H](CC(C)C)C(=O)N[C@@H](CC(C)C)C(=O)N[C@H](C(=O)N[C@@H](C)C(=O)N[C@@H](CO)C(=O)N[C@@H](CC(C)C)C(=O)O)[C@@H](C)O [Peptide 9019.0104] 4010
